Entry source: PubChem BioAssay (NCI)

System: UO-31 renal
Test: NCI-60 one-dose screen, 48 h
Details: 10 µM unless noted
The panel holds about 83,000 compounds, 20% with a hit somewhere; the sample as a whole holds those more often. The source made the active and inactive calls. How the source made its calls: active means growth percent below 10; inactive means the rest.
Outcome codes: t = active, f = inactive

COMPOUND	SUBJECT OF TEST	CATEGORY
Clc1ccc(N2N=C(c3cccc(Nc4ccncc4)c3)CC2c2ccccc2)cc1 (centres undefined)	UO-31 renal	f
Cc1c([N+](=O)[O-])cc(C(C)(C)C)cc1[N+](=O)[O-]	UO-31 renal	f
CCOc1cc(CNc2ccc(N3CCOCC3)c(C(=O)O)c2)ccc1OC	UO-31 renal	f
COc1cc(Nc2cc(O)c3c(=O)cc(-c4ccccc4)oc3c2)cc(OC)c1	UO-31 renal	f
CCCOc1nc(SCCC)nc2c1cnn2-c1ccccc1	UO-31 renal	f
CC(=O)O[C@]1(C(C)=O)CC[C@H]2[C@@H]3C=C(Cl)C4=CC(=O)CC[C@]4(C)[C@H]3CC[C@@]21C	UO-31 renal	f
CC1(C)NCCC[C@]2(C)[C@H]3CC=C4[C@@H]5C[C@@](C)(CO)CC[C@]5(C)CC[C@@]4(C)[C@]3(C)CC[C@@H]12	UO-31 renal	f
COc1cc(C2CC(c3cccc(Nc4ccncc4)c3)=NN2C(C)=O)cc(OC)c1OC (centres undefined)	UO-31 renal	f
CCOC(=O)N1CCN(CCCCl)CC1	UO-31 renal	f
O=c1[nH]c2c(s1)CCCC2CN1CCCCC1 (centres undefined)	UO-31 renal	f
C(=C\c1n(Cc2ccc3ccccc3c2)c(-c2ccccc2)c(-c2ccccc2)[n+]1Cc1ccc2ccccc2c1)/c1ccccc1	UO-31 renal	t
COc1cc2oc(-c3cccc(C(=O)Nc4ccc(Cl)cc4)c3)cc(=O)c2c(OC)c1OC	UO-31 renal	f
C[C@H]1[C@H](C)CC[C@]2(CO)CC[C@]3(C)C(=CC[C@@H]4[C@@]5(C)Cc6c([nH]c7ccccc67)C(C)(C)[C@@H]5CC[C@]43C)[C@H]12	UO-31 renal	f
CN(C)Cc1c(-c2ccccc2)[nH]c2ccccc12	UO-31 renal	f
CSc1nc(O)c(-c2ccccc2)c(=O)[nH]1	UO-31 renal	f
COc1ccc(-c2nc(SC)nc(N3CCOCC3)c2C#N)cc1	UO-31 renal	f
c1ccc(-c2nn(-c3ccccc3)[n+](-c3cccc4ccccc34)n2)cc1	UO-31 renal	f
CN1C2CCC1CN(c1cnc(C(=O)Nc3cc(F)cc4cccnc34)cn1)C2	UO-31 renal	f
Cc1cc(C)n(Nc2nc3ccccc3[nH]c2=O)c(=O)c1C#N	UO-31 renal	f
CS(=O)(=O)OCCN(CCOS(C)(=O)=O)c1ccc(/C=N/Nc2ccc([N+](=O)[O-])cc2[N+](=O)[O-])cc1	UO-31 renal	f
COc1ccc(/C(C)=N/NC(=O)CSc2nc3ccccc3c(=O)n2Cc2ccc(S(N)(=O)=O)cc2)c(OC)c1	UO-31 renal	f
COc1ccc(/C=C2\COc3ccc(-c4ccccc4)cc3C2=O)cc1O	UO-31 renal	f
CN1CCN(C(=O)OCc2nc3c(N4CCOCC4)nc(-c4ccccc4)nc3n2C)CC1	UO-31 renal	t
O=S(=O)(NCCCNc1nccc(-c2c(-c3ccccc3)nc3occn23)n1)c1ccc(Cl)cc1	UO-31 renal	f
Cc1ccc(Nc2cc(=S)nc(N)[nH]2)cc1C	UO-31 renal	f
COC(=O)CCCCCCCCC1(C)C=CC(C(C)O)=CC1 (centres undefined)	UO-31 renal	f
Cc1cc(NC(=O)c2cnc(N3CCN(CCOCCOCCOCCOCCC(=O)N[C@H](C(=O)N4C[C@H](O)C[C@H]4C(=O)N[C@@H](C)c4ccc(-c5scnc5C)cc4)C(C)(C)C)CC3)cn2)c2ncccc2c1	UO-31 renal	f
CCNC(=S)NNC(=O)c1cc2ccc1CCc1ccc(cc1)CC2	UO-31 renal	f
COc1ccc(C(=O)c2cc3c(N)c(C(=O)Nc4cccc(Cl)c4C)sc3nc2C)cc1	UO-31 renal	f
O=C1Nc2ccccc2/C1=N/c1nc(-c2ccc(Cl)cc2)cs1	UO-31 renal	f
COc1cccc(CNCCN2C(=O)c3ccc4c5c(ccc(c35)C2=O)C(=O)N(CCNCc2cccc(OC)c2)C4=O)c1	UO-31 renal	f
CN(C)CCCn1c2c(c3ccc(-c4ccn[nH]4)cc3c1=O)C(=O)c1ccccc1-2	UO-31 renal	f
FCc1nc2nc(Cl)c(Cl)nc2[nH]1	UO-31 renal	f
CCN(CC)CCCC(C)Nc1c2c(nc3ccc(OC)cc13)CCCC2 (centres undefined)	UO-31 renal	f
CN(C)C(=O)c1cc2cnc(Nc3ccc(-c4csc5c(=O)cc(N6CCOCC6)oc45)cc3)nc2n1C1CCCC1	UO-31 renal	t
O=c1[nH]nc(-c2ccc(Cl)cc2)cc1Cc1cccc([N+](=O)[O-])c1	UO-31 renal	f
Clc1ccc(N2N=C(c3cccc(Nc4ccncc4)c3)CC2c2ccc3c(c2)OCO3)cc1 (centres undefined)	UO-31 renal	f
C=C1C(=O)O[C@H]2[C@H]1CC/C(CNC(=O)/C=C/c1ccc(Br)cc1)=C\CC[C@@]1(C)O[C@@H]21	UO-31 renal	t
CCSc1ccc2c(c1)N(CCCN1CCN(C)CC1)c1ccccc1S2	UO-31 renal	t

----------
Test system: NCI/ADR-RES ovarian
Assay: NCI-60 one-dose screen, 48 h (100 = growth as untreated, 0 = no growth, -100 = all killed)
Conditions: 10 µM unless noted
Compounds without any hit were thinned out: in the full panel of roughly 83,000, 20% have a hit.
Short version: growth at least 70% is yes (1), less is no (0).

MOL	SUBJECT OF TEST	CATEGORY
S=c1[nH]cccc1-c1nnc2n1Nc1nc3ccc(Cl)cc3cc1CS2	NCI/ADR-RES ovarian	yes (1)
CCOc1ccc(/C=N/Nc2cc(C)nc3ccc(Cl)cc23)cc1	NCI/ADR-RES ovarian	no (0)
COc1c(Cl)cc(Cl)c2ccc(C=C3C(=O)N(C)C(=O)N(C)C3=O)nc12	NCI/ADR-RES ovarian	yes (1)
Cc1cccc(Oc2ccc(Nc3ncnc4ccc(NC(=O)CNCCO)cc34)cc2Cl)c1	NCI/ADR-RES ovarian	yes (1)
COc1ccccc1Nc1cc(O)c2c(=O)cc(-c3ccccc3)oc2c1	NCI/ADR-RES ovarian	no (0)

----------
System: BT-549 breast
Test: NCI-60 one-dose screen, 48 h
Conditions: 10 µM unless noted
About 83,000 compounds went through this panel and 20% of them were active in at least one assay; those are over-represented in the sample as a whole. The source made the active and inactive calls. Rule for the calls: active = growth percent below 10; inactive = the rest.
Possible outcomes: 1.0 (active), 0.0 (inactive)

COMPOUND	CATEGORY
O=S(=O)(NCCCNc1nccc(-c2c(-c3ccc(F)c(O)c3)nc3sccn23)n1)c1ccc(F)cc1	0.0
COc1ccc2nc(N=Nc3c(O)ccc4ccccc34)sc2c1	0.0
COc1ccc(C2CC(c3cccc(Nc4ccncc4)c3)=NN2c2ccccc2)cc1 (stereo not given)	1.0
CCC(C)N(CCNc1cc(OC)cc2cccnc12)CCC(C)C (stereo not given)	0.0
NC(=O)c1ccc[n+](CC(=O)N2CCN(c3cc4c(cc3F)c(=O)c(C(=O)O)cn4C3CC3)CC2)c1	0.0

----------
Test system: MCF7 breast
Assay: NCI-60 one-dose screen, 48 h
Conditions: 10 µM unless noted
About 83,000 compounds went through this panel and 20% of them were active in at least one assay; those are over-represented in the sample as a whole. Calls of active or inactive are those of the source. The calls were made as follows: active = growth percent below 10; inactive = the rest.
Possible outcomes: YES for active, NO for inactive

COMPOUND	CATEGORY
O=C(Nc1ccc(Nc2ncccn2)cc1)NC1C=c2ccccc2=CC1 (configuration not stated)	NO
Cc1cc(C(=O)Nc2ncnc3nc[nH]c23)no1	NO
COC(=O)Nc1ccc(NC(=O)OC)cc1	NO
CC(=O)c1cccc(NS(=O)(=O)c2cccc(C(=O)Nc3ccc(Br)cc3)c2)c1	NO
Cc1[nH]c(C(=O)Nc2ccccc2OCc2cccc(C(=O)NCCN)c2)c(Cl)c1Cl	NO
O=C(Nc1ccc2cc3ccc(NC(=O)NC4CCCCC4)cc3nc2c1)NC1CCCCC1	NO
O=C(Nc1ccc(F)cc1)c1c(NC(=O)C(F)(F)F)sc2c1CCCCC2	YES
S=c1[nH]cccc1-c1nnc2n1Nc1nc3ccc(Cl)cc3cc1CS2	NO
COc1cc(/C=N/NC(=O)c2ccccc2Nc2cccc(C(F)(F)F)c2)ccc1O	NO
C#Cc1cccc(NC(=O)Nc2cccc(N=C=S)c2)c1	NO
O=C1OC(=O)C2C1CC=CC2c1ccccc1 (configuration not stated)	NO
O=C(N/N=C/c1cccc(O)c1)c1ccccc1Nc1cccc(C(F)(F)F)c1	NO
Clc1nc(Cl)c2ncn(CC3(Cn4cnc5c(Cl)nc(Cl)nc54)COC3)c2n1	YES
COc1ccc(-c2nc(SC)nc(N3CCOCC3)c2C#N)cc1	NO
O=S(=O)(NCCCNc1nccc(-c2c(-c3cccc(O)c3)nc3occn23)n1)c1ccc(F)cc1	NO
COc1ccccc1C(C[N+](=O)[O-])c1c(-c2ccccc2)[nH]c2cc(C)ccc12 (configuration not stated)	NO
N#Cc1c(Nc2ccccc2)nn2cc(-c3nc4ccccc4s3)c(N)nc12	NO
COc1ccc(CNC(=O)COc2ccc(/C=N/Nc3nc4ccccc4s3)cc2)cc1	NO
Cc1cc(C)c(C=O)c(C)c1	NO
O=S(=O)(NCCNc1nccc(-c2c(-c3cccc(F)c3)nc3occn23)n1)c1cccc2ccccc12	NO
CCNNC(=O)[C@@H]1[C@H](c2cc(OC)c(OC)c(OC)c2)c2cc3c(cc2[C@H](O)[C@H]1CO)OCO3	NO
COc1ccc(C(=O)c2cc3c(N)c(C(=O)Nc4cccc5ccccc45)sc3nc2C)cc1	NO
O=C(N/N=C/c1cccnc1)c1ccccc1Nc1cccc(C(F)(F)F)c1	NO
CC1NC(=S)NC(=O)/C1=C/c1cc(=O)oc2c1ccc1ccccc12 (configuration not stated)	NO
CCCN=C(N)c1ccc(NC(=O)c2ccc(C(=O)Nc3ccc(C(N)=NCCC)cc3)cc2)cc1	NO
COc1ccccc1Nc1cc(O)c2c(=O)cc(-c3ccccc3)oc2c1	NO
CS(=O)(=O)OCCN(CCOS(C)(=O)=O)c1ccc(/C=N/Nc2ccc([N+](=O)[O-])cc2[N+](=O)[O-])cc1	NO
COc1ccc(-c2nc(N/N=C/c3cccc(O)c3)nc(N3CCOCC3)c2C#N)cc1	NO
N/C(=N\N=C\c1cc2ccccc2[nH]1)N/N=C/c1cc2ccccc2[nH]1	NO
c1ccc(C2CC(c3cccc(Nc4ccncc4)c3)=NN2c2ccccc2)cc1 (configuration not stated)	NO
COc1cc(NCC(C)(O)CN(CC(C)C)CC(C)C)c2nc(C)ccc2c1 (configuration not stated)	YES
COc1ccc(/C=N/NC(=O)c2cccc3cc[nH]c23)cc1O	YES
Cc1n[nH]c(C)c1-c1c(C)n[nH]c1C	NO
COc1cc(NCC(O)CN(CC(C)C)C2CCCC2)c2ncccc2c1 (configuration not stated)	NO
CCn1cc(C2NC(=O)c3ccccc3N2)c2cccc(C)c21 (configuration not stated)	NO
Cc1c(C2=CCCCC2)c2ccccn2c1C(=O)c1cccc(S(=O)(=O)N2CCOCC2)c1	NO
Cc1cc2cc3cc(C)c(N)cc3[n+](C)c2cc1N	YES
COC(=O)C1=C(C(=O)ONCCN(C)C)C2C=CC1(C(Cc1ccccc1)Nc1ccc(F)cc1)O2 (configuration not stated)	NO
CC(C)CCSc1nc(NNC(N)=O)c(C#N)c(-c2ccccc2)n1	NO
ClCC1(Cn2cnc3c(Cl)nc(Cl)nc32)COC1	NO
O=S(=O)(NCCCNc1nccc(-c2c(-c3cccc(O)c3)nc3occn23)n1)c1ccc(Br)cc1	NO
C#CC(=O)Nc1cccc2c1cc(C)n2-c1nc2c(c(NCc3ccccc3)n1)CCCC2	YES
